These entries and their values trace back to patent US20260109721A1.

System: HepG2 cell line
Assay: In vitro toxicity study on HepG2 cell line (resazurin, viability and IC50)
Assay type: cell-based, human
Settings: HepG2 cells, 6.25 μM lipid, 48 h post-treatment, resazurin, relative to ethanol vehicle controls
# Lookup of reported Viability (%) at different lipid concentrations, mean keyed by entry
readout: Viability (%) at different lipid concentrations, mean

compound	unit info	readout number
CCCCC/C=C\C/C=C\CCCCCCCCOC(CCCCCN(C)CC(O)CO)O[Si](C)(C)OCCCCCCCC/C=C\C/C=C\CCCCC (stereo not drawn) [Example 66]	%	100.5
CCCCC/C=C\C/C=C\CCCCCCCCOC(CCCCCCC/C=C\C/C=C\CCCCC)O[Si](C)(C)OCCCCCCN(C)C (stereo not drawn) [Example 79]	%	100.82
CCCCC/C=C\C/C=C\CCCCCCCCOC(CCCCCCC/C=C\C/C=C\CCCCC)O[Si](C)(C)OCCCCCCN(C)[C@H](CO)Cc1ccccc1 (stereo partly drawn) [Example 77]	%	96.2
CCCCCCCC/C=C\CCCCCCCCOC(=O)C(C)(C)CC(OCCCCCCCC/C=C\CCCCCCCC)O[Si](C)(C)OCCCCCCN(CCO)CCN(CCO)CCCCCCO[Si](C)(C)OC(CC(C)(C)C(=O)OCCCCCCCC/C=C\CCCCCCCC)OCCCCCCCC/C=C\CCCCCCCC (stereo not drawn) [Example 96]	%	98.62
CCCCCCCCO[Si](C)(C)O[Si](C)(C)OC(CCCCCCC)OCCCCCCN(C)CCN(C)CCN(C)CCCCCCOC(CCCCCCC)O[Si](C)(C)O[Si](C)(C)OCCCCCCCC (stereo not drawn) [Example 83]	%	100.51
CCCCCCCC/C=C\CCCCCCCCOC(CC[C@@H](C)C1CCC2C3CCC4C[C@H](OC)CC[C@]4(C)C3CC[C@@]21C)O[Si](C)(C)OCCCCCCN(CCO)CCO (stereo partly drawn) [Example 51]	%	98.6
CCCCCCCC/C=C\CCCCCCCC(OCC(CCCCCC)CCCCCCCC)O[Si](C)(C)OCCCCCCN(CCO)CCO (stereo not drawn) [Example 50]	%	101.0
CCCCC/C=C\C/C=C\CCCCCCCCOC(CCCCCCC/C=C\C/C=C\CCCCC)O[Si](C)(C)OCCCCCCN1CCN(CCO)CC1 (stereo not drawn) [Example 58]	%	104.2
C#CCN(C)CCCCCCO[Si](C)(C)OC(CC(C)(C)C(=O)OCCCCCCCC/C=C\CCCCCCCC)OCCCCCCCC/C=C\CCCCCCCC (stereo not drawn) [Example 97]	%	100.7
CCCCCCCC/C=C\CCCCCCCC(OCCCCCCCCCCCCCCC(C)C)O[Si](C)(C)OCCCCCCN(CCO)CCO (stereo not drawn) [Example 76]	%	101.9
CCCCCCCC/C=C\CCCCCCCCOC(=O)C(C)(C)CC(OCCCCCCCC/C=C\CCCCCCCC)O[Si](C)(C)OCCCCCCN1CCCCC1 (stereo not drawn) [Example 87]	%	101.2
CCCCCCCC/C=C\CCCCCCCCOC(=O)C(C)(C)CC(OCCCCCCCC/C=C\CCCCCCCC)O[Si](C)(C)OCCCCCCN(CCCO)CCCO (stereo not drawn) [Example 88]	%	109.1
CCCCCCCC/C=C\CCCCCCCCOC(=O)C(C)(C)CC(OCCCCCCCC/C=C\CCCCCCCC)O[Si](C)(C)OCCCCCCN1CCCCC1CO (stereo not drawn) [Example 89]	%	101.4
CCCCC/C=C\C/C=C\CCCCCCCCOC(CCCCCCC/C=C\CCCCCCCC)O[Si](C)(C)OCCCCCCN(CCO)CCO (stereo not drawn) [Example 46]	%	103.7
CCCCCCCC/C=C\CCCCCCCCOC(=O)C(C)(C)CC(OCCCCCCCC/C=C\CCCCCCCC)O[Si](C)(C)OCCCCCCN(C)CC(O)CO (stereo not drawn) [Example 92]	%	105.5
CCCCC/C=C\C/C=C\CCCCCCCCOC(CCCCCCC/C=C\C/C=C\CCCCC)O[Si](C)(C)OCCCCCCN(CCO)CCN(CCO)CCCCCCO[Si](C)(C)OC(CCCCCCC/C=C\C/C=C\CCCCC)OCCCCCCCC/C=C\C/C=C\CCCCC (stereo not drawn) [Example 71]	%	102.71
CCCCC/C=C\C/C=C\CCCCCCCCOC(CCCCCCC/C=C\C/C=C\CCCCC)O[Si](C)(C)OCCCCCCN(CCO)CCO (stereo not drawn) [Example 48]	%	97.4
CCCCC/C=C\C/C=C\CCCCCCCCO[Si](C)(C)OC(CCCCCCC/C=C\C/C=C\CCCCC)OCCCCCCN(CCO)CCO (stereo not drawn) [Example 40]	%	100.8

====

# Lookup of reported Viability (%) at different lipid concentrations, mean keyed by entry
System: HepG2 cell line
Experiment: In vitro toxicity study on HepG2 cell line (resazurin, viability and IC50)
Type: cell-based, human
Details: HepG2 cells, 6.25 μM lipid, 48 h post-treatment, resazurin, relative to ethanol vehicle controls
Method: The synthesized lipids were tested in term of in vitro transfection efficacy and toxicity on HeLa cells. In order to perform the mentioned biological tests, appropriate LNPs had to be formulated from the synthesized lipids. The formulation technique was different in Method A and B. The particle size, polydispersity index (PDI) and zeta potential of resulting LNPs were determined by means of Dynamic Light Scattering technique (DLS). […]
readout: Viability (%) at different lipid concentrations, mean

> print(dat)
                                   compound  unit.info  readout.number
1  CCCCCCCC/C=C\CCCCCCCC(OCCC(C)CCCC(C)CCCC(C)CCCC(C)C)O[Si](C)(C)OCCCCCCN(CCO)CCO (stereo not shown)          %           110.3
2  CCCCCCCC/C=C\CCCCCCCC(OCCCCCCCCCCCC1CCCCC1)O[Si](C)(C)OCCCCCCN(CCO)CCO (stereo not shown)          %           101.5
3  CCCCCCCCCCCOC(=O)CCCCCN(CCO)CCCCCCCC(=O)OC(CCCCCCCC)CCCCCCCC [SM-102, reference compound]          %            86.5
4  CCCCC/C=C\C/C=C\CCCCCCCCOC(CCCCCCC/C=C\C/C=C\CCCCC)O[Si](C)(C)OCCCCCCN1CCOCC1 (stereo not shown)          %            91.7

====

Assay: LNP size, PDI and zeta potential by Dynamic Light Scattering (Method A)
Format: physicochemical
Conditions: LNP formulated with the lipid, DLS
readout: Size (nm)

> print(dat)
                                   compound    result
1  CCCCCCCC/C=C\CCCCCCCCOC(=O)C(C)(C)CC(OCCCCCCCC/C=C\CCCCCCCC)O[Si](C)(C)OCCCCCCN1CCCCC1CO (stereo not drawn)  97.17 nm
2  CCCCC/C=C\C/C=C\CCCCCCCCOC(CCCCCCC/C=C\C/C=C\CCCCC)O[Si](C)(C)OCCCCCCN(C)C (stereo not drawn)  102.1 nm
3  CCCCC/C=C\C/C=C\CCCCCCCCOC(CCCCCCC/C=C\C/C=C\CCCCC)O[Si](C)(C)O[Si](C)(C)CCCCCCN(CCO)CCO (stereo not drawn)   97.5 nm

====

# Lookup of reported Viability (%) at different lipid concentrations, mean keyed by entry
System: HepG2 cell line
Test: In vitro toxicity study on HepG2 cell line (resazurin, viability and IC50)
Assay type: cell-based, human
Conditions: HepG2 cells, 25 μM lipid, 48 h post-treatment, resazurin, relative to ethanol vehicle controls
readout: Viability (%) at different lipid concentrations, mean

compound	readout number
CCCCC/C=C\C/C=C\CCCCCCCCOC(CCCCCCC/C=C\C/C=C\CCCCC)O[Si](C)(C)OCCCCCCN(C)CC(O)CO (stereo not shown)	112.6
CCCCCCCCC(CCCCCC)C(=O)OCCCCCCN(CCCCO)CCCCCCOC(=O)C(CCCCCC)CCCCCCCC (stereo not shown) [ALC-0315, reference compound]	95.4
CCCCCCCC/C=C\CCCCCCCCOC(=O)C(C)(C)CC(OCCCCCCCC/C=C\CCCCCCCC)O[Si](C)(C)OCCCCCCN1CCCCC1 (stereo not shown)	97.0
CCCCC/C=C\C/C=C\CCCCCCCCOC(CCCCCCC/C=C\C/C=C\CCCCC)O[Si](C)(C)OCCCCCCN(CCO)CCO (stereo not shown)	95.7
CCCCC/C=C\C/C=C\CCCCCCCCOC(CCCCCCC/C=C\C/C=C\CCCCC)O[Si](C)(C)OCCCCCCN(C)Cc1cn(C2[C@H](O)O[C@H](CO)[C@@H](O)[C@@H]2O)nn1 (stereo partly shown)	107.3
CCCCCCCC/C=C\CCCCCCCCOC(=O)C(C)(C)CCC(OCCCCCCCC/C=C\CCCCCCCC)O[Si](C)(C)OCCCCCCN(CCO)CCO (stereo not shown)	97.9
CCCCCCCC/C=C\CCCCCCCCOC(CCCCCCC/C=C\CCCCCCCC)O[Si](C)(C)OCCCCCCN(CCO)CCO (stereo not shown)	99.5
